assay: Solubility determination; format: physicochemical; settings: solubility
Numbered stars: 1 amine (or outer) side, 2 acyl side, 3 side chain; on linkers, the order of the positions; unused ones are H or OH. Bridge positions count the residues as written; N and C are the ends. Square brackets hold non-standard residues; d marks the D form. Peptide text beside a SMILES is read from it. * marks the point of attachment. Phe(3,5-Me2) = Cc1cc(C)cc(C[C@H](N)C(=O)O)c1; Phe(3-Me) = Cc1cccc(C[C@H](N)C(=O)O)c1; Pro(4S-Me) = C[C@@H]1CN[C@H](C(=O)O)C1; Pro(4R-Me) = C[C@H]1CN[C@H](C(=O)O)C1; NH(4-Me-phenyl) = Cc1ccc(N*)cc1; aThr = C[C@H](O)[C@H](N)C(=O)O; Pip = O=C(O)[C@@H]1CCCCN1; CO = O=C([*:1])[*:2]
QUANTITY: μsol (μM) (µM)
I only need the number, in µM, no unit after it.

Worked examples, 2 compounds total:
Cc1ccc(NC(=O)N[C@@H](Cc2cccc(C)c2)C(=O)N[C@@H]2C(=O)N3CCC[C@H]3C(=O)N3CCCC[C@H]3C(=O)N[C@@H](C)C(=O)N3C[C@@H](C)C[C@H]3C(=O)O[C@H]2C)cc1 [Compound 45] ({NH(4-Me-phenyl)-CO}-[Phe(3-Me)][aThr]P[Pip]A[Pro(4S-Me)]; ester 2-C)    44.7
Cc1ccc(NC(=O)N[C@@H](Cc2cccc(C)c2)C(=O)N[C@@H]2C(=O)N3CCC[C@H]3C(=O)N3CCCC[C@H]3C(=O)N[C@@H](C)C(=O)N3C[C@H](C)C[C@H]3C(=O)O[C@H]2C)cc1 [Compound 1] ({NH(4-Me-phenyl)-CO}-[Phe(3-Me)][aThr]P[Pip]A[Pro(4R-Me)]; ester 2-C)    40.7

Now take the following compound into account.
Prompt: Given Cc1ccc(NC(=O)N[C@@H](Cc2cc(C)cc(C)c2)C(=O)N[C@@H]2C(=O)N3CCC[C@H]3C(=O)N3CCCC[C@H]3C(=O)N[C@@H](C)C(=O)N3C[C@H](C)C[C@H]3C(=O)O[C@H]2C)cc1 [Compound 2] ({NH(4-Me-phenyl)-CO}-[Phe(3,5-Me2)][aThr]P[Pip]A[Pro(4R-Me)]; ester 2-C) , state its recorded μsol (μM).
Response: 10.4

====

assay: Plasma protein binding, rapid equilibrium dialysis; type: in vitro ADME, human; details: human, 4 h, 10 μM, pH 7.4
Numbered stars: 1 amine (or outer) side, 2 acyl side, 3 side chain; on linkers, the order of the positions; unused ones are H or OH. Bridge positions count the residues as written; N and C are the ends. Square brackets hold non-standard residues; d marks the D form. Peptide text beside a SMILES is read from it. * marks the point of attachment. Piperazine(2S-CO,4-Me) = CN1CCN[C@H](C(=O)O)C1; Phe(3-Me) = Cc1cccc(C[C@H](N)C(=O)O)c1; NH(4-Cl-2-F-phenyl) = Fc1cc(Cl)ccc1N*; Pro(4R-Me) = C[C@H]1CN[C@H](C(=O)O)C1; Hyp = O=C(O)[C@@H]1C[C@@H](O)CN1; NH(4-Et-phenyl) = CCc1ccc(N*)cc1; aThr = C[C@H](O)[C@H](N)C(=O)O; Pip = O=C(O)[C@@H]1CCCCN1; CO = O=C([*:1])[*:2]
Entries annotated with measured Human
I only need the number, in %, no unit after it.

Worked examples, 3 compounds total:
Cc1cccc(C[C@H](NC(=O)Nc2ccc(Cl)cc2F)C(=O)N[C@@H]2C(=O)N3C[C@H](O)C[C@H]3C(=O)N3CCCC[C@H]3C(=O)N[C@@H](C)C(=O)N3C[C@H](C)C[C@H]3C(=O)O[C@H]2C)c1 [Compound 6] ({NH(4-Cl-2-F-phenyl)-CO}-[Phe(3-Me)][aThr][Hyp][Pip]A[Pro(4R-Me)]; ester 2-C)    99.7
Cc1cccc(C[C@H](NC(=O)Nc2ccc3c(c2)OCO3)C(=O)N[C@H]2COC(=O)[C@@H]3C[C@@H](C)CN3C(=O)[C@H](C)NC(=O)[C@@H]3CCCCN3C(=O)[C@@H]3CCCN3C2=O)c1 [Compound 23]    97.1
CCc1ccc(NC(=O)N[C@@H](Cc2cccc(C)c2)C(=O)N[C@H]2COC(=O)[C@@H]3C[C@@H](C)CN3C(=O)[C@H](C)NC(=O)[C@@H]3CN(C)CCN3C(=O)[C@@H]3CCCN3C2=O)cc1 [Compound 16] ({NH(4-Et-phenyl)-CO}-[Phe(3-Me)]SP[Piperazine(2S-CO,4-Me)]A[Pro(4R-Me)]; ester 2-C)    98.5

Now take the following compound into account.
Prompt: Given Cc1cccc(C[C@H](NC(=O)Nc2ccc(Cl)cc2F)C(=O)N[C@H]2COC(=O)[C@@H]3C[C@@H](C)CN3C(=O)[C@H](C)NC(=O)[C@@H]3CCCCN3C(=O)[C@@H]3C[C@H](N)CN3C2=O)c1 [Compound 12] , state its recorded Human.
Response: 99.9
